- System under test: HMG-CoA synthase (Rattus norvegicus)
- Construct: The livers from male Charles River CD rats (225-350 g) were homogenized; from tissue; host or cells: rat liver (male Charles River CD rats), 100,000×g supernatant, ammonium sulfate precipitate, DEAE-52 fraction
- Experimental protocol: HMG-CoA synthase inhibition assay
- Assay type: biochemical
- Experimental conditions: Table II; n is 1, R3 is C1-5 alkyl
Below, each of the molecules is paired with its reported IC50 value.
Kindly answer with a numeric value in µM, unit omitted.

CC[C@@H]1C(=O)N(S(=O)(=O)c2ccc(C)cc2)[C@@H]1CF (relative stereo) = 0.06
CC[C@@H]1C(=O)N(S(=O)(=O)c2ccc(C)cc2)[C@@H]1COC (relative stereo) = 0.067

Here is another molecule to look at.
// sample CC[C@@H]1C(=O)N(S(=O)(=O)c2ccc(C)cc2)[C@@H]1CSc1ccccc1 (relative stereo) , its IC50 was 0.12

---

- System under test: HMG-CoA synthase (Rattus norvegicus)
- Construct: The livers from male Charles River CD rats (225-350 g) were homogenized; from tissue; host or cells: rat liver (male Charles River CD rats), 100,000×g supernatant, ammonium sulfate precipitate, DEAE-52 fraction
- Sequence (P17425 1-520): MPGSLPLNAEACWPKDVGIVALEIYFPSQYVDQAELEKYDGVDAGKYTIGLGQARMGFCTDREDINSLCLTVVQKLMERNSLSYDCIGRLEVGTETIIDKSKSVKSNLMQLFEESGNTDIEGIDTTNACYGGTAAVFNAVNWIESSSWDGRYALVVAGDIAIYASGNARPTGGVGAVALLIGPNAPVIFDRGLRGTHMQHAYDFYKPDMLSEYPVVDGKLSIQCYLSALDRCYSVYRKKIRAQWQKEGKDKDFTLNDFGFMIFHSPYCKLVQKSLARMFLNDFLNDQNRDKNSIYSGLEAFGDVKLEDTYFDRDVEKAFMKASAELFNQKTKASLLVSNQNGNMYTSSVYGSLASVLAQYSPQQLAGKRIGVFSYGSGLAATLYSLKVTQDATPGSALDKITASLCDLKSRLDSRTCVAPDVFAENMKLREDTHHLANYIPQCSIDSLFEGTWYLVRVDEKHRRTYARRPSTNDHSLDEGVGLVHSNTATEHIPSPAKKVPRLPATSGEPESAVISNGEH
- Experimental protocol: HMG-CoA synthase inhibition assay
- Type: biochemical
- Experimental conditions: Table IV; n is 2, R3 is CH3CH2 or CH3OCH2
Value kind: IC50 (nM)
Kindly answer with a numeric value in nM, unit omitted.

Field: example entries. Status: answers known.
COC[C@H]1C(=O)N(S(=O)(=O)c2ccc(C)cc2)[C@@H]1CCOc1ccc(C(=O)OC)cc1 (relative stereo) = 1400
CC[C@@H]1C(=O)N(S(=O)(=O)c2ccc(C)cc2)[C@@H]1CCS(=O)(=O)c1ccccc1 (relative stereo) = 640

// sample CC[C@@H]1C(=O)N(S(=O)(=O)c2ccc(C)cc2)[C@@H]1CCOc1ccc(C(=O)OC)cc1 (relative stereo) , its IC50 was 65
